Source of measurements: ChEMBL document CHEMBL2311358

method_notes: Solubility of the compound in amorphous form in PEG 400 at pH 6.5
Assay type: physicochemical
experimental_conditions: PEG 400, pH 6.5
observed_property: solubility

- CNC(=O)c1ccc(F)c2c(C(=O)C(=O)N3CCN(C(=O)c4ccccc4)CC3)c[nH]c12: 18 mg/mL

====

method_notes: Cytotoxicity against human HeLa cells expressing CD4 assessed as cell viability after 6 days by XTT assay
Format: cell-based
observed_property: CC50 at 144 h (µM)

* O=C(NCc1ccco1)c1ccc(F)c2c(C(=O)C(=O)N3CCN(C(=O)c4ccccc4)CC3)c[nH]c12 | 71
* NCCNC(=O)c1ccc(F)c2c(C(=O)C(=O)N3CCN(C(=O)c4ccccc4)CC3)c[nH]c12 | 135
* C[C@@H]1CN(C(=O)c2ccccc2)CCN1C(=O)C(=O)c1c[nH]c2c(C(N)=O)ccc(F)c12 | 141
* O=C(Nc1nc2ccccc2[nH]1)c1ccc(F)c2c(C(=O)C(=O)N3CCN(C(=O)c4ccccc4)CC3)c[nH]c12 | 9.2

====

method_notes: Half life in monkey at 1 mg/kg, iv
Format: ADME, organism-based, Macaca mulatta
Design: dose 1 mg/kg, route intravenous
experimental_conditions: rhesus monkey, in vivo
observed_property: half-life (h)

- CNC(=O)c1ccc(F)c2c(C(=O)C(=O)N3CCN(C(=O)c4ccccc4)CC3)c[nH]c12: 4.18

====

System: Human immunodeficiency virus 1
method_notes: Antiviral activity against HIV1 JRFL infected in human HeLa cells expressing CD4 and CCR5 assessed as inhibition of single-cycle viral replication by luciferase reporter gene assay
Format: functional, organism-based
experimental_conditions: Human immunodeficiency virus 1, JRFL
pEC50: −log10 of the molar value.
Respond with t for pEC50 values of 9 and above, f for values below.

• CN(C)C(=O)c1ccc(F)c2c(C(=O)C(=O)N3CCN(C(=O)c4ccccc4)CC3)c[nH]c12 = f
• O=C(NCc1ccccc1)c1ccc(F)c2c(C(=O)C(=O)N3CCN(C(=O)c4ccccc4)CC3)c[nH]c12 = f
• O=C(NS(=O)(=O)c1ccccc1)c1ccc(F)c2c(C(=O)C(=O)N3CCN(C(=O)c4ccccc4)CC3)c[nH]c12 = t
• O=C(Nc1nc2ccccc2[nH]1)c1ccc(F)c2c(C(=O)C(=O)N3CCN(C(=O)c4ccccc4)CC3)c[nH]c12 = t
• O=C(NCc1nc2ccccc2[nH]1)c1ccc(F)c2c(C(=O)C(=O)N3CCN(C(=O)c4ccccc4)CC3)c[nH]c12 = f
• CCn1nccc1NC(=O)c1ccc(F)c2c(C(=O)C(=O)N3CCN(C(=O)c4ccccc4)CC3)c[nH]c12 = f
• Cc1csc(NC(=O)c2ccc(F)c3c(C(=O)C(=O)N4CCN(C(=O)c5ccccc5)CC4)c[nH]c23)n1 = t
• COCCNC(=O)c1ccc(F)c2c(C(=O)C(=O)N3CCN(C(=O)c4ccccc4)CC3)c[nH]c12 = f
• O=C(Nc1nc2ccccc2s1)c1ccc(F)c2c(C(=O)C(=O)N3CCN(C(=O)c4ccccc4)CC3)c[nH]c12 = t
• O=C(Nc1nncs1)c1ccc(F)c2c(C(=O)C(=O)N3CCN(C(=O)c4ccccc4)CC3)c[nH]c12 = t
• NC(=O)c1ccc(F)c2c(C(=O)C(=O)N3CCN(C(=O)c4ccccn4)CC3)c[nH]c12 = f

====

Form field: Papp (one value per entry).
method_notes: Permeability across human Caco2 cells at pH 6.5
Assay type: ADME, cell-based
experimental_conditions: Caco-2, pH 6.5, read-out: permeability
observed_property: Papp (×10⁻⁶ cm/s)

• CNC(=O)c1ccc(F)c2c(C(=O)C(=O)N3CCN(C(=O)c4ccccc4)CC3)c[nH]c12 = 11.2
• O=C(C(=O)N1CCN(C(=O)c2ccccc2)CC1)c1c[nH]c2cccc(F)c12 = 10

====

method_notes: Cmax in dog at 1 mg/kg, iv and 2.5 mg/kg, po
Format: ADME, organism-based, Canis lupus familiaris
experimental_conditions: in vivo
observed_property: Cmax (ng/mL)

- CNC(=O)c1ccc(F)c2c(C(=O)C(=O)N3CCN(C(=O)c4ccccc4)CC3)c[nH]c12: 1560

====

method_notes: AUC in dog at 1 mg/kg, iv and 2.5 mg/kg, po
Assay type: ADME, organism-based, Canis lupus familiaris
experimental_conditions: plasma
observed_property: AUC

- CNC(=O)c1ccc(F)c2c(C(=O)C(=O)N3CCN(C(=O)c4ccccc4)CC3)c[nH]c12: 7030 ng·h/mL

====

This listing pairs compounds with measured CC50 at 144 h.
method_notes: Cytotoxicity against human HeLa cells expressing CD4 assessed as cell viability after 6 days by XTT assay
Type: cell-based
observed_property: CC50 at 144 h

• COCCNC(=O)c1ccc(F)c2c(C(=O)C(=O)N3CCN(C(=O)c4ccccc4)CC3)c[nH]c12 = 298 µM
• O=C(NCCN1CCOCC1)c1ccc(F)c2c(C(=O)C(=O)N3CCN(C(=O)c4ccccc4)CC3)c[nH]c12 = > 300 µM
• CNC(=O)c1ccc(F)c2c(C(=O)C(=O)N3CCN(C(=O)c4ccccc4)CC3)c[nH]c12 = > 300 µM
• O=C(NS(=O)(=O)c1ccccc1)c1ccc(F)c2c(C(=O)C(=O)N3CCN(C(=O)c4ccccc4)CC3)c[nH]c12 = > 300 µM
• CCn1nccc1NC(=O)c1ccc(F)c2c(C(=O)C(=O)N3CCN(C(=O)c4ccccc4)CC3)c[nH]c12 = 166 µM
• CN(C)C(=O)c1ccc(F)c2c(C(=O)C(=O)N3CCN(C(=O)c4ccccc4)CC3)c[nH]c12 = > 300 µM
• O=C(NCCc1cc2ccccc2[nH]1)c1ccc(F)c2c(C(=O)C(=O)N3CCN(C(=O)c4ccccc4)CC3)c[nH]c12 = > 300 µM
• O=C(NCc1nc2ccccc2[nH]1)c1ccc(F)c2c(C(=O)C(=O)N3CCN(C(=O)c4ccccc4)CC3)c[nH]c12 = > 300 µM
• O=C(Nc1nc2ccccc2s1)c1ccc(F)c2c(C(=O)C(=O)N3CCN(C(=O)c4ccccc4)CC3)c[nH]c12 = 81 µM

====

method_notes: Oral bioavailability in monkey at 2.5 mg/kg
Format: ADME, organism-based, Macaca mulatta
experimental_conditions: rhesus monkey, in vivo
observed_property: bioavailability (%)

• CNC(=O)c1ccc(F)c2c(C(=O)C(=O)N3CCN(C(=O)c4ccccc4)CC3)c[nH]c12 = 70

====

method_notes: Cmax in monkey at 1 mg/kg, iv and 2.5 mg/kg, po
Type: ADME, organism-based, Macaca mulatta
experimental_conditions: rhesus monkey, in vivo
observed_property: Cmax

* CNC(=O)c1ccc(F)c2c(C(=O)C(=O)N3CCN(C(=O)c4ccccc4)CC3)c[nH]c12 | 1330 ng/mL

====

method_notes: Half life in rat at 1 mg/kg, iv
Assay type: ADME, organism-based
Design: dose 1 mg/kg, route intravenous
experimental_conditions: in vivo
observed_property: half-life (h)

* CNC(=O)c1ccc(F)c2c(C(=O)C(=O)N3CCN(C(=O)c4ccccc4)CC3)c[nH]c12 | 2.18

====

method_notes: AUC in rat at 1 mg/kg, iv and 5 mg/kg, po
Format: ADME, organism-based
experimental_conditions: plasma
observed_property: AUC (ng·h/mL)

* CNC(=O)c1ccc(F)c2c(C(=O)C(=O)N3CCN(C(=O)c4ccccc4)CC3)c[nH]c12 | 4620

====

method_notes: Cmax in rat at 1 mg/kg, iv and 5 mg/kg, po
Format: ADME, organism-based
experimental_conditions: in vivo
observed_property: Cmax (ng/mL)

* CNC(=O)c1ccc(F)c2c(C(=O)C(=O)N3CCN(C(=O)c4ccccc4)CC3)c[nH]c12 | 843

====

Test system: Human immunodeficiency virus 1
method_notes: Antiviral activity against HIV1 JRFL infected in human HeLa cells expressing CD4 and CCR5 assessed as inhibition of single-cycle viral replication by luciferase reporter gene assay
Type: functional, organism-based
experimental_conditions: Human immunodeficiency virus 1, JRFL
Quick list: EC50 per entry.
observed_property: EC50 (nM)

• CC(=O)N1CC(NC(=O)c2ccc(F)c3c(C(=O)C(=O)N4CCN(C(=O)c5ccccc5)CC4)c[nH]c23)C1 = 11.2
• C[C@@H]1CN(C(=O)c2ccccc2)CCN1C(=O)C(=O)c1c[nH]c2c(C(N)=O)ccc(F)c12 = 0.14
• O=C(Nc1nc(-c2ccccc2)cs1)c1ccc(F)c2c(C(=O)C(=O)N3CCN(C(=O)c4ccccc4)CC3)c[nH]c12 = 0.21
• NNC(=O)c1ccc(F)c2c(C(=O)C(=O)N3CCN(C(=O)c4ccccc4)CC3)c[nH]c12 = 2.69

====

method_notes: Cytotoxicity against human HeLa cells expressing CD4 assessed as cell viability after 6 days by XTT assay
Type: cell-based
observed_property: CC50 at 144 h

* O=C(Nc1ccccn1)c1ccc(F)c2c(C(=O)C(=O)N3CCN(C(=O)c4ccccc4)CC3)c[nH]c12 | 69 µM
* NC(=O)c1ccc(F)c2c(C(=O)C(=O)N3CCN(C(=O)c4ccccn4)CC3)c[nH]c12 | > 300 µM
* O=C(NCc1cccs1)c1ccc(F)c2c(C(=O)C(=O)N3CCN(C(=O)c4ccccc4)CC3)c[nH]c12 | 44 µM
* O=C(Nc1nnn[nH]1)c1ccc(F)c2c(C(=O)C(=O)N3CCN(C(=O)c4ccccc4)CC3)c[nH]c12 | > 300 µM
* NNC(=O)c1ccc(F)c2c(C(=O)C(=O)N3CCN(C(=O)c4ccccc4)CC3)c[nH]c12 | > 300 µM
* NC(=O)c1ccc(F)c2c(C(=O)C(=O)N3CCN(C(=O)c4ccccc4)CC3)c[nH]c12 | > 300 µM
* Cc1cc(NC(=O)c2ccc(F)c3c(C(=O)C(=O)N4CCN(C(=O)c5ccccc5)CC4)c[nH]c23)on1 | > 300 µM
* O=C(C(=O)N1CCN(C(=O)c2ccccc2)CC1)c1c[nH]c2cccc(F)c12 | > 300 µM
* O=C(NCc1ccccc1)c1ccc(F)c2c(C(=O)C(=O)N3CCN(C(=O)c4ccccc4)CC3)c[nH]c12 | > 300 µM
* Cc1csc(NC(=O)c2ccc(F)c3c(C(=O)C(=O)N4CCN(C(=O)c5ccccc5)CC4)c[nH]c23)n1 | 29 µM
* O=C(Nc1nncs1)c1ccc(F)c2c(C(=O)C(=O)N3CCN(C(=O)c4ccccc4)CC3)c[nH]c12 | 1.74 µM
* C[C@@H]1CN(C(=O)c2ccccn2)CCN1C(=O)C(=O)c1c[nH]c2c(C(N)=O)ccc(F)c12 | > 300 µM
* O=C(Nc1cccnc1)c1ccc(F)c2c(C(=O)C(=O)N3CCN(C(=O)c4ccccc4)CC3)c[nH]c12 | 132 µM
* COc1ccc(C(N)=O)c2[nH]cc(C(=O)C(=O)N3CCN(C(=O)c4ccccc4)CC3)c12 | 244 µM
* O=C(Nc1ccncc1)c1ccc(F)c2c(C(=O)C(=O)N3CCN(C(=O)c4ccccc4)CC3)c[nH]c12 | > 300 µM
* CS(=O)(=O)NC(=O)c1ccc(F)c2c(C(=O)C(=O)N3CCN(C(=O)c4ccccc4)CC3)c[nH]c12 | > 300 µM
* O=C(Nc1nc(-c2ccccc2)cs1)c1ccc(F)c2c(C(=O)C(=O)N3CCN(C(=O)c4ccccc4)CC3)c[nH]c12 | > 300 µM
